# test-target: PKC-ζ, purified isoform (UniProt Q05513)
# Sequence (Q05513 whole entry, canonical isoform): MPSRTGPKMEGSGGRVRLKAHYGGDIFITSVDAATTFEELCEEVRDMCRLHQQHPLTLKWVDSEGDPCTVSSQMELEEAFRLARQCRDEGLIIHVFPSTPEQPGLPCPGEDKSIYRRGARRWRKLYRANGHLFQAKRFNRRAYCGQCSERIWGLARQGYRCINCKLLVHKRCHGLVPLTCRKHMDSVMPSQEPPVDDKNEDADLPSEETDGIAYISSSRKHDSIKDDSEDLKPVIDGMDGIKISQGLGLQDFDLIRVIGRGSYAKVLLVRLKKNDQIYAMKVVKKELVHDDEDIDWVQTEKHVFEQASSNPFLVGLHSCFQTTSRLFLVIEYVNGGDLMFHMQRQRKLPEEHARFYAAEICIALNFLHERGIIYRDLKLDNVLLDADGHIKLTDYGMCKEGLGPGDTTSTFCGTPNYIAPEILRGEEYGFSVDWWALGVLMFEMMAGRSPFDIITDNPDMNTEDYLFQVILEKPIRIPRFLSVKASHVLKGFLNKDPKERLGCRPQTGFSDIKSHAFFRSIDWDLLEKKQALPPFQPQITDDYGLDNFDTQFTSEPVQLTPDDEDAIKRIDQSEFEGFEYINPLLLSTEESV
# procedure-summary: competition ELISA on coated purified PKC-ζ vs anti-PKC ζ antibody; PRE 200 µM
Measured relative binding capacity, listed per entry for reference.
Please state the figure in %; there is no need to write the unit.

Past entries and their recorded results:
Ac-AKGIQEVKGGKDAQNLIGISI-NH2 [PRE 5] = 0
Ac-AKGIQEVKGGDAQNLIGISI-NH2 [PRE 3] = 29.1
Ac-RDAQNLI-NH2 [PRE 13] = 4.29
Ac-RDAQNLIGISI-NH2 [PRE 11] = 0
Ac-ISIGILQNADK-NH2 [PRE 7] = 1.54
Ac-KDANQLIGISI-NH2 [PRE 6] = 0
Ac-ISIGILNQADK-NH2 [PRE 10] = 0
Ac-KDAQNLI-NH2 [PRE 12] = 0.33

Record summary for Ac-KDAQNLIGISI-NH2 [PRE 4] : reported relative binding capacity = 5.85

Numbers sourced from patent US20110039770A1.
